Entry source: ChEMBL document CHEMBL3797188

Experiment: Oral bioavailability in fasted dog at 0.5 mg/kg
Assay type: ADME, organism-based, Canis lupus familiaris
Settings: in vivo
Experimental Endpoint: bioavailability (%)
Answers are plain numbers, in %.

Lab book: bioavailability of Cc1ccc(N(CCN2CCC(OCC(=O)O)CC2)C(=O)c2ccc3c(c2)OCO3)cc1.Cl.O noted as 76

###

Would you kindly list IC50 for each of these molecules?
Test: Antiplatelet activity in human platelet rich plasma assessed as inhibition of ADP-induced platelet aggregation
Type: functional, cell-free
Give bare numbers, in nM.

# annotated cases, reported IC50 shown
O=C(O)COC1CCN(CCN(C(=O)c2ccc(F)cc2)c2ccc(Cl)cc2)CC1    2000
Cc1ccc(N(CCN2CCC(OCC(=O)O)CC2)C(=O)c2cccc(C(F)(F)F)c2)cc1    20000
Cc1ccc(N(CCN2CCC(OCC(=O)O)CC2)C(=O)c2ccc(F)cc2)cc1    970
COc1cccc(C(=O)N(CCN2CCC(OCC(=O)O)CC2)c2ccc(C)cc2)c1    32
COc1cccc(C(=O)N(CCN2CCC(OCC(=O)O)CC2)c2ccc(C)cc2)c1OC    1600

Below are some molecules; for each one, tell me its IC50.
1. COc1ccc(C(=O)N(CCN2CCC(OCC(=O)O)CC2)c2ccc(C)cc2)cc1
2. COc1cc(OC)cc(C(=O)N(CCN2CCC(OCC(=O)O)CC2)c2ccc(C)cc2)c1
3. O=C(O)COC1CCN(CCN(C(=O)c2ccccc2)c2ccc(Cl)cc2)CC1
4. COc1ccc(C(=O)N(CCN2CCC(OCC(=O)O)CC2)c2ccc(Cl)cc2)cc1
5. O=C(O)COC1CCN(CCN(C(=O)c2ccc(Cl)cc2)c2ccc(Cl)cc2)CC1
6. Cc1ccc(N(CCN2CCC(OCC(=O)O)CC2)C(=O)c2cccc(Cl)c2)cc1
7. O=C(O)COC1CCN(CCN(C(=O)c2cccc(F)c2)c2ccc(Cl)cc2)CC1

Result:
1. 1200
2. 530
3. 440
4. 3100
5. 1500
6. 100
7. 340

Below are some molecules; for each one, tell me its IC50.
1. O=C(O)COC1CCN(CCN(C(=O)c2cccc(Cl)c2)c2ccc(Cl)cc2)CC1
2. Cc1ccc(N(CCN2CCC(OCC(=O)O)CC2)C(=O)c2cccc(C)c2)cc1
3. COc1cccc(C(=O)N(CCN2CCC(OCC(=O)O)CC2)c2ccc(Cl)cc2)c1
4. Cc1ccc(N(CCN2CCC(OCC(=O)O)CC2)C(=O)c2ccc3c(c2)OCO3)cc1
5. Cc1ccc(N(CCN2CCC(OCC(=O)O)CC2)C(=O)c2ccc(Cl)cc2)cc1
6. Cc1ccc(N(CCN2CCC(OCC(=O)O)CC2)C(=O)c2cccc(F)c2)cc1

Result:
350
160
74
21
690
160

Below are some molecules; for each one, tell me its IC50.
1. Cc1cccc(C(=O)N(CCN2CCC(OCC(=O)O)CC2)c2ccc(Cl)cc2)c1
2. Cc1ccc(N(CCN2CCC(OCC(=O)O)CC2)C(=O)c2ccccc2)cc1

Result:
[310, 220]

###

Assay: Antiplatelet activity in human platelet rich plasma assessed as inhibition of ADP-induced platelet aggregation
Type: functional, cell-free
pIC50: −log10 of the molar value.
Experimental Endpoint: pIC50

# annotated cases, reported pIC50 shown
COc1ccc(C(=O)N(CCN2CCC(OCC(=O)O)CC2)c2ccc(C)cc2)cc1OC    < 5.52
Cc1ccc(N(CCN2CCC(OCC(=O)O)CC2)C(=O)c2ccc(-c3ccccc3)cc2)cc1    < 5.00
O=C(O)COC1CCN(CCN(C(=O)c2ccc(-c3ccccc3)cc2)c2ccc(Cl)cc2)CC1    < 5.00
O=C(O)COC1CCN(CCN(C(=O)c2ccc(C(F)(F)F)cc2)c2ccc(Cl)cc2)CC1    < 5.00
COc1ccc(OC)c(C(=O)N(CCN2CCC(OCC(=O)O)CC2)c2ccc(C)cc2)c1    < 5.52
Cc1ccc(N(CCN2CCC(OCC(=O)O)CC2)C(=O)c2ccc(C(F)(F)F)cc2)cc1    < 5.00

Next compound, pIC50 to be filled in.
Lab book: pIC50 of O=C(O)COC1CCN(CCN(C(=O)c2cccc(C(F)(F)F)c2)c2ccc(Cl)cc2)CC1 noted as < 5.00
